Data origin, for the record: PubChem BioAssay AID624167

Tested on: Rat fibroblasts (CREF)
Measurement Description: Peg3 promoter luciferase inhibitors, potency, dose response, cell-based, HeLa, CREF/GAPDH counter-screen panel (AID 624167)
Study Conditions: CREF/GAPDH counter-screens, run 1, dose range 1, individual replicate IC50 per panel
Kindly apply the following: y if IC50 is less than 10 µM, n in every other case.

IN: Record "CCOc1cccc(/C=N/NC(=S)Nc2cc(S(=O)(=O)N3CCOCC3)ccc2N2CCOCC2)c1O" : is its IC50 strictly below 10 µM?
OUT: n

IN: Record "COc1cccc(/C=N/NC(=O)c2ccc(-c3ccccc3)cc2)c1O" : is its IC50 strictly below 10 µM?
OUT: n

IN: Record "Cc1cccc(OCC(=O)NCC(=O)N/N=C/c2cc(Br)cc(Br)c2O)c1" : is its IC50 strictly below 10 µM?
OUT: n

IN: Record "O=C1C(Cl)=C(Nc2ccccc2)C(=O)c2ccccc21" : is its IC50 strictly below 10 µM?
OUT: y

IN: Record "O=C(Nc1ccccn1)c1cc2ccccc2o1" : is its IC50 strictly below 10 µM?
OUT: y

IN: Record O=C(c1ccco1)N1CCN(C(c2ccccc2Cl)c2nnnn2Cc2cccs2)CC1 (stereo not given) : is its IC50 strictly below 10 µM?
OUT: n

IN: Record "CCOC(=O)c1c(SCCN2CCCCC2)n(-c2ccccc2)c(=S)n(-c2ccccc2)c1=O" : is its IC50 strictly below 10 µM?
OUT: n

IN: Record CCC(C)Cn1c(O)cc2nn(-c3nc4ccccc4s3)c(=O)c-2c1C (stereo not given) : is its IC50 strictly below 10 µM?
OUT: n

IN: Record "COc1cc(Nc2c3ccccc3nc3ccccc23)cc(OC)c1OC" : is its IC50 strictly below 10 µM?
OUT: n

IN: Record "COc1ccc(-n2c(O)c(/C=N/Nc3nc(C)cc(C)n3)c3ccccc3c2=O)cc1OC" : is its IC50 strictly below 10 µM?
OUT: n

###

System: Rat fibroblasts (CREF)
Measurement Description: Peg3 promoter luciferase inhibitors, potency, dose response, cell-based, HeLa, CREF/GAPDH counter-screen panel (AID 624167)
Study Conditions: CREF/GAPDH counter-screens, mean of runs
The source made the active and inactive calls.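 Rule for the calls: active = mean IC50 for reducing PEG3 promoter reporter signal at or below a set limit, with IC50 above the limit in both counter screens; inactive = the rest, including counter screen hits.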
Select the matching outcome among active, inactive

IN: Per the assay record, what outcome was assigned to "Cc1ccc(C(=O)Nc2nc3ccccc3[nH]2)cc1" ?
OUT: active

IN: Per the assay record, what outcome was assigned to "CCN(CC)S(=O)(=O)c1cccc(C(=O)N/N=C(\C)c2ccc(O)cc2O)c1" ?
OUT: inactive

IN: Per the assay record, what outcome was assigned to O=C(c1ccco1)N1CCN(C(c2ccccc2Cl)c2nnnn2Cc2cccs2)CC1 (stereo not given) ?
OUT: inactive

IN: Per the assay record, what outcome was assigned to CC(=O)NC(c1ccc(N(C)C)cc1)c1cc(Cl)c2cccnc2c1O (stereo not given) ?
OUT: inactive

IN: Per the assay record, what outcome was assigned to "O=C(Nc1ncc([N+](=O)[O-])s1)c1ccc2c(c1)OCO2" ?
OUT: active

IN: Per the assay record, what outcome was assigned to "O=C(N/N=C/c1cc([N+](=O)[O-])ccc1O)c1ccc(COc2ccc3c(c2)CCC3)o1" ?
OUT: inactive

IN: Per the assay record, what outcome was assigned to "Cc1ccc(/C=C2\SC(=S)N(CCCC(=O)NNC(=O)c3ccccc3O)C2=O)cc1" ?
OUT: inactive

IN: Per the assay record, what outcome was assigned to "CCOc1ccc2c(ccc(/C=C/c3cc(C)c4cccnc4c3O)[n+]2C)c1" ?
OUT: active

IN: Per the assay record, what outcome was assigned to "CN(C)S(=O)(=O)c1ccc(-c2csc(N/N=C/c3ccc(O)cc3)n2)cc1" ?
OUT: active

IN: Per the assay record, what outcome was assigned to "CCOc1cccc(/C=N/NC(=S)Nc2cc(S(=O)(=O)N3CCOCC3)ccc2N2CCOCC2)c1O" ?
OUT: inactive
